Cited source for all entries: the DeepSol protein solubility set

Method notes: soluble on expression in E. coli; label from the status in PepcDB or PDB records
Reported endpoint: soluble on expression in E. coli

Study these solved cases before continuing.
MAERELYIGVMSGTSLDGVDTALVALQDDNIELLAHHDYPIPADLKQRLLNVCIGQPTTLIAMGELEHDLGHLFSDAVLALLQHSGYRAEHIRAIGCHGQTVFHQPTGTKPFTMQIGDANIIATRTGITTVADFRRKDVALGGQGAPLVPAFHRTIFHAEQSTVVVLNIGGIANISVLKPNGEVVGYDTGPGNMLMDSWCQKERNQPYDKDALWAKQGSVNAALLSHLKQDHYFALPAPKSTGRELFNLPWLETQLATFSVDATDVQRTLCEFTAQTIVEQVAPFAEGPQPQLLVCGGGAQNPLLMERLQALLPSWQVAPTTQMGVDGDNMEAMAFAWLAQRRIHGLPSNLPAVTGASRLASLGVIYYPD
not soluble
TLAYKEGFYYKPRIDYELLEKYGEGLIALTACLKGVPTYYASINEVKKAEEWVKKFKDIFGDDLYLELQANNIPEQEVANRNLIEIAKKYDVKLIATQDAHYLNPE
soluble
MGSDKIHHHHHHMIKHHPHAELLQAHAQGELPLSMSMAVAAHCALCQECQNQIAKLTEQAAKLAFVSSSDDPVQHNASNEIDVVDNDPWQQMLSNIMALPESTMSEPYIESSVTVSHRNIRYQIPRVFRQHIALPWQQIGKVSRMRFDIDEKNTRASLLYIEALGEIPQHTHKGFELTLLLSGEFSDSTGNYVVGDFIILDGNTQHSPTTQTGCLCYTVLDAPLYFTKGISKLLNPIGELIY
not soluble
GSHMSSLEKRLGKNEYFIITKSSPVRAILNDFAANYSIPVFISSSVNDDFSGEIKNEKPVKVLEKLSKLYHLTWYYDENILYIYKTNEISRSIITPTYLDIDSLLKYLSDTISVNKNSCNVRKITTFNSIEVRGVPECIKYITSLSESLDKEAQSK
soluble
GAQNQDCAFFFPNQEGEQITRNCYTADGKLTNILVYRVDQAYEYPSGMEVVANYTFADAAGKTLNSGQMVARCSDGNFSMSMGDVATFPTALNMMNADVYMMGDLMNYPDAFSNPMNPGDDDEFDDGTLRLYQKGNKNNRAEISVFDREFVTTETVNTPAGAFYCTKVKYEMNIWTPKETIKGYGYEWYAPNIGIVRSEQYNNKKELQSYSVLERIKK
soluble

# ---- query sequence ----
[in] For the sequence shown here, `MGSDKIHHHHHHENLYFQGMNIETLMIKNPPILSKEDRLGSAFKKINEGGIGRIIVANEKIEGLLTTRDLLSTVESYCKDSCSQGDLYHISTTPIIDYMTPNPVTVYNTSDEFTAINIMVTRNFGSLPVVDINDKPVGIVTEREFLLLYKDLDEIFPVKVFMSTKVQTIYKEVRLDQAVKLMLRRGFRRLPVIDDDNKVVGIVTVVNAIKQLAKAVDKLDPDYFYGKVVKDVMVTNLVTIDELASVNRAAAEMIVKRIGSLLILNKDNTIRGIITERDLLIALHHILVMEKFKEKL` , give the reported soluble on expression in E. coli.
[out] soluble

====

Method notes: soluble on expression in E. coli; label from the status in PepcDB or PDB records
Reported endpoint: soluble on expression in E. coli

MLMFTEKEFAAFEVAGLDERMAVIRAQIQPIFQELDTYFAEQLAPELGTELFVHIAQHRRRTVYPPENTWSALSPNKRGYKMQPHFQLGIWGDYVFMWLSFIDNPKNEKQIAQAFLENQQLFQALPEDTYVSLDHTVPQITPLPETDLEKALTRFRDVKKGEFEIGRIIPKDSDLWQNPEKARAYMLATYQQLLPLYQLAVAQ
not soluble
MLSYHTDIPTDLPLLRQAVEAIRREESGGAVPDSDRPRVIYEARNRLYAIRTAQGEQVVKSFRIPIAIQRVVYSFFRPSKAARSYRNAIRLGRCGIGTPRPSGYAIEREKGLLCRSYYVCESMHDCRDIRLSMQGVEGGEALLRALAGFIARMHRAGIHHIDLSPGNVLYRTDEKGEYSFYLIDLNRMKFYDKPIVGRKAYANFARLSFCPAVSKQLAEYYAEAQGLNTDGVVQGVQSESDRFFRSKVRKYARKALVREQKRMSRSAFRRAYIRYRSVRLIRKLTGCTRLFRIENDLYTSYLEVGDLRHTLKRAEGYSSPKNVQ
not soluble
